Could you please report measured OD450 nm of CD47 bound to SIRPα for the items listed next?
- experimental.system: T1, biotin-labeled CD47 extracellular domain protein (CD47-ECD) (UniProt Q08722 19-139, limits assumed, biotin-labeled (sites not given))
- T1 construct: extracellular domain; also called CD47 protein
- T1 sequence (Q08722 19-139 limits assumed): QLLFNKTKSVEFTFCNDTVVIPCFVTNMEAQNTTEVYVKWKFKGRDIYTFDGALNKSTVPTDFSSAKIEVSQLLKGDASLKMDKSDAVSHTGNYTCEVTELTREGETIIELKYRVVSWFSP
- protocol.text: blocking ELISA, biotin-CD47-ECD on coated SIRPα-hFc; Ab 1.6 nM

Please look at this binder and report its OD450 nm of CD47 bound to SIRPα: 20H4G5 (antibody, V domains shown, Murine hybridoma antibody purified on protein G) VH: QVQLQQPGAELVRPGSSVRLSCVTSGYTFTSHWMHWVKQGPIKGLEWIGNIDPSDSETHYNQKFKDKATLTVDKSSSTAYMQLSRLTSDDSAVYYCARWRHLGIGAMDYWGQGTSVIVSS VL: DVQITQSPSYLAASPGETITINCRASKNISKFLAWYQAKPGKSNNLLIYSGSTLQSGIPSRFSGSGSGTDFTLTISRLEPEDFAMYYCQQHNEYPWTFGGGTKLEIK
0.16

Please look at this binder and report its OD450 nm of CD47 bound to SIRPα: 95E2D10 (antibody, V domains shown, Murine hybridoma antibody purified on protein G) VH: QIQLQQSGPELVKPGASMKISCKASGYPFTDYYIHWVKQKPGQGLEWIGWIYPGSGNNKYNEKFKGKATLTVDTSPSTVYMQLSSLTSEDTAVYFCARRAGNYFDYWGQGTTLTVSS VL: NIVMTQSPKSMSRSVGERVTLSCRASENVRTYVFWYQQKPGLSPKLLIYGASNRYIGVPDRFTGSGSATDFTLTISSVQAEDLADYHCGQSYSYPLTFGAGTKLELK
0.52

Please look at this binder and report its OD450 nm of CD47 bound to SIRPα: 25E3B5 (antibody, V domains shown, Murine hybridoma antibody purified on protein G) VH: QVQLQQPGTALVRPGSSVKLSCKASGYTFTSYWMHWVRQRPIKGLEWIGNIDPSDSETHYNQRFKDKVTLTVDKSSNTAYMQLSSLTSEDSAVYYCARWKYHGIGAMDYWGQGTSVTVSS VL: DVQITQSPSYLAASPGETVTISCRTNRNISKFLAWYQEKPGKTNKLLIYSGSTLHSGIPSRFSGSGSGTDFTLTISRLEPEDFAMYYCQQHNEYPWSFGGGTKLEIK
0.18

Data provenance is patent US20220017615A1.
